Assay: in vitro
Settings: African green monkey
Starred links: 1 amine or outer side, 2 acyl side, 3 side chain; linkers in the order of their positions; H or OH if unused. Positions of bridges follow the written chain, without caps; N, C: chain ends. Non-standard residues stand in square brackets, D forms with d. Residues, ends and D or L forms follow the SMILES beside them. *: point of attachment. pTerphenylCO(4''-OnC5H11) = CCCCCOc1ccc(-c2ccc(-c3ccc(C(=O)*)cc3)cc2)cc1; Orn(4R-OH,5R-OH) = O=C([C@H](C[C@@H](O)[C@@H](O)N[*:3])N[*:1])[*:2]; hTyr(3S-OH,4S-OH) = N[C@H](C(=O)O)[C@H](O)[C@@H](O)c1ccc(O)cc1; Pro(3S-OH,4S-Me) = C[C@H]1CN[C@H](C(=O)O)[C@H]1O; Hyp = O=C(O)[C@@H]1C[C@@H](O)CN1
observed-property: CC50

CCCCCOc1ccc(-c2ccc(-c3ccc(C(=O)N[C@H]4C[C@@H](O)[C@@H](O)NC(=O)[C@@H]5[C@@H](O)[C@@H](C)CN5C(=O)[C@H]([C@@H](C)O)NC(=O)[C@H]([C@H](O)[C@@H](O)c5ccc(O)cc5)NC(=O)[C@@H]5C[C@@H](O)CN5C(=O)[C@H]([C@@H](C)O)NC4=O)cc3)cc2)cc1 [Anidulafungin, anidulafungin] ({pTerphenylCO(4''-OnC5H11)}-[Orn(4R-OH,5R-OH)]T[Hyp][hTyr(3S-OH,4S-OH)]T[Pro(3S-OH,4S-Me)]; lactam 1-C); 41.7 µM
O=C1C(O)=C([C@H]2CC[C@H](c3ccc(Cl)cc3)CC2)C(=O)c2ccccc21; > 100 µM
COc1cccc(-c2ccc(NC(=O)C3=C(C(=O)O)CCC3)c(F)c2)c1; > 100 µM
COc1c(C)c2c(c(O)c1C/C=C(\C)CCC(=O)O)C(=O)OC2; > 100 µM
CC(=O)Oc1ccccc1C(=O)Nc1ncc([N+](=O)[O-])s1 [Nitazoxanide]; > 100 µM
COc1c(C)c2c(c(O)c1C/C=C(\C)CCC(=O)OCCN1CCOCC1)C(=O)OC2 [Mycophenolate mofetil]; > 100 µM
